Tested on: U2OS
test_protocol: Incucyte cell viability with U2OS; note: unitless GR value; below 1 slowed growth and below 0 cell loss
Format: toxicity, cell-based
study_conditions: human, 24 h, 10 µM, compound concentration 10 uM, replicate number 1
observable: Growth Rate
One number for each entry.

O=C(NCCN1CCOCC1)c1ccc2nn(CCOc3ccc(Cl)cc3)cc2c1; 0.93
C[C@@H](C(N)=O)[C@H](N)c1nc2cc(C(C)(C)C)ccc2[nH]1 [PF-06305591]; 0.95
COc1ccccc1-c1cc(Nc2cccc(CS(N)(=O)=O)c2)ncn1; 0.46

Give me Growth Rate for each of these compounds, listed below.
1. c1cc(-c2cnn3cc(-c4ccc(N5CCNCC5)cc4)cnc23)c2cccnc2c1
2. COc1cc(C(N)=O)ccc1Nc1ncc2c(n1)N(CCC(C)C)[C@H](C)C(=O)N2C
3. C[C@]12CC[C@@H]3c4ccc(O)cc4CC[C@H]3[C@@H]1C[C@H]1OC(=O)C[C@]12O
4. NS(=O)(=O)c1ccc(Nc2nc(OCC3CCCCC3)c3nc[nH]c3n2)cc1
5. CC(C)C[C@H](NC(=O)[C@@H](O)[C@H](N)Cc1ccccc1)C(=O)O [UBENIMEX]
6. CC(C)(C)c1ccc(NC(=O)N2CCN(c3ncccc3Cl)CC2)cc1

[-0.49, -0.55, 0.6, 0.87, 0.89, 0.99]

----------
Assignment: determine reported Growth Rate for the given compounds.
System: HEK-293T
test_protocol: Incucyte cell viability with HEK293T; note: unitless GR value; below 1 slowed growth and below 0 cell loss
Format: toxicity, cell-based
study_conditions: human, 0 h, 10 µM, compound concentration 10 uM, replicate number 2
Answers are plain numbers.

Some solved cases for reference:
O=C(O)CCCCN(CCc1cc(F)ccc1OCc1ccc(-c2ccc(C(F)(F)F)cc2)cc1)Cc1ccc(C(=O)O)cc1; -0.87
Cc1cn(CCN2CCN(c3ccccc3-c3cc(C#N)cc(C(=O)NCCCN4CCCC4)c3)CC2)c2ccccc12; -1
CCN1CCN(Cc2ccc(Nc3ncc(F)c(-c4cc(F)c5nc(C)n(C(C)C)c5c4)n3)nc2)CC1; -0.03
CN1CCCN(C(=O)c2cccc(-c3ccc(/C=C4/C(=O)Nc5ccc(Cl)cc54)o3)c2)CC1; -1
c1cc(-c2cnn3cc(-c4ccc(N5CCNCC5)cc4)cnc23)c2cccnc2c1; 0.43
N#Cc1c(SCc2csc(-c3ccc(Cl)cc3)n2)nc(N2CCCC2)c(C#N)c1-c1ccc(OCCO)cc1; -0.75

Hi there! I need Growth Rate for each item below, if you can.
1. Cl.Cl.N=C(N)NCCC[C@H](NC(=O)CC1(CC(=O)N2CCN(C3c4ccccc4NC(=O)c4ccccc43)CC2)CCCC1)C(=O)NCCn1c(=O)n(-c2ccccc2)n(-c2ccccc2)c1=O (stereo partly drawn)
2. c1ccc2c(-c3coc4cc(-c5ccc(N6CCNCC6)cc5)cnc34)ccnc2c1

1: -0.2; 2: -1

----------
Test system: U2OS
test_protocol: Incucyte cell viability with U2OS; note: unitless GR value; below 1 slowed growth and below 0 cell loss
Assay type: toxicity, cell-based
study_conditions: human, 6 h, 10 µM, compound concentration 10 uM, replicate number 2
observable: Growth Rate
Numbers only.

Provide reported Growth Rate for each item, in the same order as listed.
1. Cl.NC(=O)c1ccccc1Nc1nc(-c2ccc(N3CCOCC3)cc2)cc2ncccc12
2. COc1cc(Cl)c(C(=O)N[C@@H](CN[C@H]2CC[C@@H](N)CC2)Cc2ccc(C#N)cc2)cc1-c1ccc(CN[C@H](C)c2ccc(C)cc2)o1
3. CCN(C(=O)c1cc(F)ccc1Oc1cncnc1N1CC2(CCN(C[C@H]3CC[C@H](NS(=O)(=O)CC)CC3)CC2)C1)C(C)C
4. Cc1nc2c([nH]1)c(=O)n(C)c(=O)n2Cc1ccco1
5. COc1ccc(-c2csc(NC(=O)[C@H]3CCCCN3S(=O)(=O)c3ccc(C)cc3)n2)cc1
6. COCc1nc2cnc3cc(-c4c(C)noc4C)c(OC[C@H]4CCNC4)cc3c2n1[C@H](C)c1ccccc1
7. CC[C@H](CC(=O)O)n1c(=O)c2ncccc2n(Cc2cn(C)c3cc(C)cc(C)c23)c1=O

0.39
-0.91
0.45
0.59
0.97
-0.84
0.74

State the recorded Growth Rate for this entry: Cl.O=C(NCCN1CCC2(CC1)C(=O)NCN2c1cccc(F)c1)c1ccc2ccccc2c1
0.73
